Data origin: patent US20220315554A1

Target: FAP-expressing human WI-38 fibroblasts (Homo sapiens)
Construct: FAP-expressing human WI-38 fibroblasts (ECACC) were cultured in EMEM; host or cells: WI-38 human fibroblasts
Sequence (Q12884 whole entry): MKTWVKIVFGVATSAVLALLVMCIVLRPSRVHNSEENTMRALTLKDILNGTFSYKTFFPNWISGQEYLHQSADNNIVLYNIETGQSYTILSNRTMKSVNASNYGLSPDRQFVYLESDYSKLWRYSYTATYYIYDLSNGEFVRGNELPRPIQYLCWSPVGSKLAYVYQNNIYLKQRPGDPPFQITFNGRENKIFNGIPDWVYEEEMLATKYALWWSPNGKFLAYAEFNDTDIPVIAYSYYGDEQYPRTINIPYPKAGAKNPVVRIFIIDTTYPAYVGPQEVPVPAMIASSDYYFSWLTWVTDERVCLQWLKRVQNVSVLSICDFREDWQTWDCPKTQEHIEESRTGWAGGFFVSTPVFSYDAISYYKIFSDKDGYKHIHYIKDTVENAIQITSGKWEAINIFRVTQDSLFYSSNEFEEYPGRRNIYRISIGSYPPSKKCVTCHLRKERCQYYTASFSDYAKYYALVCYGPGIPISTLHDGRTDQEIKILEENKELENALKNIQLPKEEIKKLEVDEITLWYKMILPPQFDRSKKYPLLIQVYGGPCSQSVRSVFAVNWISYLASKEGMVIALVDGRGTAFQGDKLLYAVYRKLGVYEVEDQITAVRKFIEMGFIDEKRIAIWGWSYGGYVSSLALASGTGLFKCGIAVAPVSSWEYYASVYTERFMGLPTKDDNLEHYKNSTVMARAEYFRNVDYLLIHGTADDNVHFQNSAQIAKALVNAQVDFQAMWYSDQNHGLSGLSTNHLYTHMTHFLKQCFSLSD
Assay: Competitive FACS binding assay
Settings: pIC50 Category (FACS), competition with 3 nM Cy5-labeled compound, 4° C., 1 hour
Experimental: Cells were analyzed in an Attune NxT flow cytometer. […]
pIC50: −log10 of the molar value. Numbered stars: 1 amine (or outer) side, 2 acyl side, 3 side chain; on linkers, the order of the positions; unused ones are H or OH. Bridge positions count the residues as written; N and C are the ends. Square brackets hold non-standard residues; d marks the D form. Peptide text beside a SMILES is read from it. * marks the point of attachment. X39 = NCCOCCOCC(=O)NCCSCc1cc(C[*:1])cc(C[*:2])c1; X12 = NCCNCC(CNCCN)C(=O)NCCCOCCOCCOCCCN*; X40 = NCCNCC(CNCCN)C(=O)NCCS(=O)(=O)CCN*; mXylylene = c1cc(C[*:1])cc(C[*:2])c1; 4Pal = N[C@@H](Cc1ccncc1)C(=O)O; Suc = O=C(CCC(=O)[*:2])[*:1]; Nle = CCCC[C@H](N)C(=O)O; Hexanoyl = CCCCCC(=O)*
measurement-type: pIC50

As a guide, the following entries are already answered.
INSERT INTO results (molecule, measurement_type, meas_value) VALUES
  ('CCCCCC(=O)N[C@H]1CSCc2cc(CSCCNC(=O)CN3CCN(CC(=O)O)CCN(CC(=O)O)CCN(CC(=O)O)CC3)cc(c2)CSC[C@@H](C(=O)N[C@@H](CO)C(=O)O)NC(=O)[C@H](Cc2ccccc2)NC(=O)[C@H](CCC(N)=O)NC(=O)[C@H]([C@@H](C)O)NC(=O)[C@@H]2CCCN2C(=O)[C@@H]2CCCN2C1 [3BP-3658]', 'pIC50', '> 8.00'),
  ('CCCCCC(=O)N[C@H]1CSCc2cc(CSCCNC(=O)CN3CCN(CC(=O)O)CCN(CC(=O)O)CCN(CC(=O)O)CC3)cc(c2)CSC[C@@H](C(=O)O)NC(=O)[C@H](Cc2cccnc2)NC(=O)[C@H](CCC(N)=O)NC(=O)[C@H]([C@@H](C)O)NC(=O)[C@@H]2CCCN2C(=O)[C@@H]2CCCN2C1 [3BP-3664]', 'pIC50', '> 8.00'),
  ('CCCCCC(=O)N[C@H]1CSCc2cc(CSCCNC(=O)CN(CCN(CCN(CC(=O)O)CC(=O)O)CC(=O)O)CC(=O)O)cc(c2)CSC[C@@H](C(=O)O)NC(=O)[C@H](Cc2ccccc2)NC(=O)[C@H](CCC(N)=O)NC(=O)[C@H]([C@@H](C)O)NC(=O)[C@@H]2CCCN2C(=O)[C@@H]2CCCN2C1=O [3BP-4309]', 'pIC50', '7.10 to 8.00'),
  ('CCCCCC(=O)N[C@H]1CSCc2cc(CSCCNC(=O)CCOCCOCCOCCOCCOCCOCCNC(=O)[C@H](CO)NC(=O)[C@H](CO)NC(=O)[C@H](CO)NC(=O)CS)cc(c2)CSC[C@@H](C(=O)O)NC(=O)[C@H](Cc2ccccc2)NC(=O)[C@H](CCC(N)=O)NC(=O)[C@H]([C@@H](C)O)NC(=O)[C@@H]2CCCN2C(=O)[C@@H]2CCCN2C1=O [3BP-4308]', 'pIC50', '7.10 to 8.00');

Quick request: pIC50 for each listed item, please.
1. CCCCCC(=O)N[C@@H]1CSCc2cc(CSCCNC(=O)CN3CCN(CC(=O)O)CCN(CC(=O)O)CCN(CC(=O)O)CC3)cc(c2)CSC[C@H](C(=O)O)NC(=O)[C@H](Cc2ccccc2)NC(=O)[C@H](CCC(N)=O)NC(=O)[C@H]([C@@H](C)O)NC(=O)[C@@H]2CCCN2C(=O)[C@@H]2CCCN2C1=O [3BP-4110]
2. CCCCCC(=O)N[C@@H]1CSCc2cc(CSCCNC(=O)CN3CCN(CC(=O)O)CCN(CC(=O)O)CCN(CC(=O)O)CC3)cc(c2)CSC[C@@H](C(=O)O)NC(=O)[C@H](Cc2ccccc2)NC(=O)[C@H](CCC(N)=O)NC(=O)[C@H]([C@@H](C)O)NC(=O)[C@@H]2CCCN2C(=O)[C@@H]2CCCN2C1=O [3BP-4109]
3. CCCCCC(=O)N[C@H]1CSCc2cc(CSCCNC(=O)CN3CCN4CCN5CCN(CC3)CC(=O)[O][In]([O]C(=O)C4)[O]C(=O)C5)cc(c2)CSC[C@@H](C(N)=O)NC(=O)[C@H](Cc2ccccc2)NC(=O)[C@H](CCC(N)=O)NC(=O)[C@H]([C@@H](C)O)NC(=O)[C@@H]2CCCN2C(=O)[C@@H]2CCCN2C1=O [3BP-3712]
4. CCCC(NC(=O)CCC(=O)NCCCOCCOCCOCCCNC(=O)CN1CCN(CC(=O)O)CCN(CC(=O)O)CCN(CC(=O)O)CC1)C(=O)N[C@H]1CSCc2cc(CSCCNC(=O)CN3CCN(CC(=O)O)CCN(CC(=O)O)CCN(CC(=O)O)CC3)cc(c2)CSC[C@@H](C(=O)O)NC(=O)[C@H](Cc2ccccc2)NC(=O)[C@H](CCC(N)=O)NC(=O)[C@H]([C@@H](C)O)NC(=O)[C@@H]2CCCN2C(=O)[C@@H]2CCCN2C1=O (stereo partly drawn) [3BP-4386]
5. CCCC(NC(=O)CCC(=O)NCCCOCCOCCOCCCNC(=O)CN1CCN(CC(=O)O)CCN(CC(=O)O)CCN(CC(=O)O)CC1)C(=O)N[C@H]1CSCc2cccc(c2)CSC[C@@H](C(=O)N[C@@H](CC(=O)O)C(=O)NCCCOCCOCCOCCCNC(=O)CCC(=O)N[C@@H](CCCCNC(=O)CN2CCN(CC(=O)O)CCN(CC(=O)O)CCN(CC(=O)O)CC2)C(N)=O)NC(=O)[C@H](Cc2ccccc2)NC(=O)[C@H](CCC(N)=O)NC(=O)[C@H]([C@@H](C)O)NC(=O)[C@@H]2CCCN2C(=O)[C@@H]2CCCN2C1=O (stereo partly drawn) [3BP-4393]

1. 7.10 to 8.00
2. > 8.00
3. > 8.00
4. 7.10 to 8.00
5. > 8.00

Quick request: pIC50 for each listed item, please.
1. CCCC[C@H](NC(=O)CCC(=O)NCCS(=O)(=O)CCNC(=O)C(CNCCN)CNCCN)C(=O)N[C@H]1CSCc2cccc(c2)CSC[C@@H](C(=O)O)NC(=O)[C@H](Cc2ccccc2)NC(=O)[C@H](CCC(=O)O)NC(=O)[C@H]([C@@H](C)O)NC(=O)[C@@H]2CCCN2C(=O)[C@@H]2CCCN2C1=O [3BP-4243] ({X40-Suc}-[Nle]CPPTEFC-OH; linker 2-8 via mXylylene)
2. CCCC[C@H](NC(=O)CCC(=O)NCCCOCCOCCOCCCNC(=O)C(CNCCN)CNCCN)C(=O)N[C@H]1CSCc2cccc(c2)CSC[C@@H](C(=O)O)NC(=O)[C@H](Cc2ccncc2)NC(=O)[C@H](CCC(=O)O)NC(=O)[C@H]([C@@H](C)O)NC(=O)[C@@H]2CCCN2C(=O)[C@@H]2CCCN2C1=O [3BP-4223] ({X12-Suc}-[Nle]CPPTE[4Pal]C-OH; linker 2-8 via mXylylene)
3. CCCCCC(=O)N[C@H]1CSCc2cc(CSCCNC(=O)COCCOCCN)cc(c2)CSC[C@@H](C(=O)N[C@@H](CC(=O)O)C(N)=O)NC(=O)[C@H](Cc2ccccc2)NC(=O)[C@H](CCC(N)=O)NC(=O)[C@H]([C@@H](C)O)NC(=O)[C@@H]2CCCN2C(=O)[C@@H]2CCCN2C1=O [3BP-4003] (Hexanoyl-CPPTQFCD-NH2; linker 1-7 via X39)

["7.10 to 8.00", "6.10 to 7.00", "> 8.00"]
